Entries and their IC50 values follow.
- TARGET UNDER TEST: farnesyl protein transferase (FPT) (Rattus norvegicus, UniProt Q02293+Q04631)
- Construct: were partially purified from rat brain by ammonium sulfate fractionation
- ASSAY TEXT: Inhibition of farnesyl protein transferase (FPT), in vitro enzyme assay, Ras-CVLS farnesylation
- ASSAY CONTEXT: Table 22
MEASURE: IC50 (nM)

CN1CCN(c2cc(CC(=O)N3CCC(C4c5ccc(Cl)cc5CCc5cc(Br)cnc54)CC3)ccn2)CC1 (stereo not drawn)
5000
CSc1cc(CC(=O)N2CCC(C3c4ccc(Cl)cc4CCc4cc(Br)cnc43)CC2)ccn1 (stereo not drawn)
1170
C[C@H](N)C(=O)N1CCC(CC(=O)N2CCN(C3c4ccc(Cl)cc4CCc4cccnc43)CC2)CC1 (stereo partly drawn)
2500
CSCC[C@H](N)C(=O)N1CCC(CC(=O)N2CCN(C3c4ccc(Cl)cc4CCc4cccnc43)CC2)CC1 (stereo partly drawn)
1890
O=C(Cc1ccnc(-n2ccnc2)c1)N1CCC(C2c3ccc(Cl)cc3CCc3cc(Br)cnc32)CC1 (stereo not drawn)
1800
CS(=O)(=O)c1cc(CC(=O)N2CCC(C3c4ccc(Cl)cc4CCc4cc(Br)cnc43)CC2)ccn1 (stereo not drawn)
1160
